- System: WNT target genes in IMR90-1 hiPSCs
- method: Microarray and qPCR gene expression of WNT target genes
- Assay type: cell-based, human
- measurement-context: 12, 24 and 72 h after treatment
reported-endpoint: expression levels of WNT target genes by qPCR

• COc1ccc(CCC(=O)Nc2nc3ccc(Cl)cc3s2)cc1OC [KY02111] = suppressed
• Cc1ccc2nc(NC(=O)CSc3nc4c(c(=O)n3-c3ccccc3)SCC4)sc2c1 [IWP-2, reference compound] = suppressed
• Oc1nc(-c2ccc(C(F)(F)F)cc2)nc2c1CSCC2 [XAV939, reference compound] = suppressed
